# Target system: human sphingosine-1-phosphate receptor 1 (S1P1) (Homo sapiens (Human))
# Assay details: β-Arrestin2 recruitment assay (PathHunter), S1P1 CHO-K1 cells
# Assay type: cell-based
# Experimental context: β-arrestin2 recruitment, S1P1 CHO-K1 cells
# Sequence (P21453 whole entry, looked up): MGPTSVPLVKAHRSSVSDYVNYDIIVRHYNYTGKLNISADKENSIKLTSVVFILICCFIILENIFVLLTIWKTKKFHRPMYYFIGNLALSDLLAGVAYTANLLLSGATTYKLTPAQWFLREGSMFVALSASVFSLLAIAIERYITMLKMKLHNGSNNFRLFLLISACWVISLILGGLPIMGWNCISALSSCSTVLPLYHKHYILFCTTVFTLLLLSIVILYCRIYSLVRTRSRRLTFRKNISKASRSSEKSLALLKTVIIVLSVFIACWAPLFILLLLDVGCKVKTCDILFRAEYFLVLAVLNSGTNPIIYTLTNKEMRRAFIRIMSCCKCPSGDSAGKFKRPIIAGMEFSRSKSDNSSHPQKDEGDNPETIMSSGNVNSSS
# Sequence (P32121 whole entry partner, looked up): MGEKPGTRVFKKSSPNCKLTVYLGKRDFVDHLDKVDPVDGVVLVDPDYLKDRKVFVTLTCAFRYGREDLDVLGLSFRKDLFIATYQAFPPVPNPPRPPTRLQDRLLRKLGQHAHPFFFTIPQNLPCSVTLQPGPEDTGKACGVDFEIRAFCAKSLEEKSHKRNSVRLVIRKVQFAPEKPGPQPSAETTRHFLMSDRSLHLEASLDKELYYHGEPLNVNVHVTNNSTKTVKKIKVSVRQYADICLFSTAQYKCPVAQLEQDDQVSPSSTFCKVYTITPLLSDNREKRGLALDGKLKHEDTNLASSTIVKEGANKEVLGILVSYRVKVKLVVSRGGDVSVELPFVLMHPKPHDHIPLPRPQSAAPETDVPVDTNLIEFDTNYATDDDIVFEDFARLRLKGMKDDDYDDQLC
Observed property: hS1P1 B-arrestin2 pEC50

Example cases with answers are listed next.
CC(C)n1ncc2cc(-c3nc(-c4ccccc4Br)no3)ccc21: >5
Cn1cnc2ccc(-c3nnc(-c4ccc(NC(C)(C)CO)c(C#N)c4)o3)cc21: <5
CC(C)Nc1ccc(-c2nnc(-c3ccc4c(c3)C(=O)NCC4)o2)cc1C#N: <5
Cc1ccc(-c2nc(-c3ccc4c(c3)nnn4C(C)C)no2)cn1: <5
CC(C)Nc1ccc(-c2nc(-c3ccc4sc(N)nc4c3)no2)cc1C#N: >5
CC(C)Oc1ccc(-c2nc(-c3ccc4c(c3)nnn4C3CCCC3)no2)cc1: <5

Per the records, this compound ( CCC1(CC)CC(=O)c2cc(-c3nc(-c4ccc5ncccc5c4)no3)ccc2O1 ) has hS1P1 B-arrestin2 pEC50 equal to <5

In plain terms, CCC1(CC)CC(=O)c2cc(-c3nc(-c4ccco4)no3)ccc2O1 has a documented hS1P1 B-arrestin2 pEC50 of >5

Kindly note the recorded hS1P1 B-arrestin2 pEC50 for COc1ccccc1-c1nc(-c2ccc3c(c2)nnn3C(C)C)co1 , which is >5

hS1P1 B-arrestin2 pEC50 in this record for Cc1cc(-c2nc(-c3ccc4c(c3)nnn4C(C)C)no2)cnc1C : <5

Form: compound = N#Cc1cc(-c2nnc(-c3cccc4[nH]cnc34)o2)ccc1NCC(F)F ; hS1P1 B-arrestin2 pEC50 = >5

Entry CC(C)n1ncc2cc(-c3nc(-c4ccccc4O)no3)ccc21 — recorded hS1P1 B-arrestin2 pEC50 = <5

The compound listed as Oc1ccc(-c2noc(-c3ccc4c(c3)nnn4C3CCCC3)n2)cc1 has a reported hS1P1 B-arrestin2 pEC50 of >5

Notebook: CC(C)(CO)n1nnc2cc(-c3noc(-c4cnccc4C(F)(F)F)n3)ccc21 , hS1P1 B-arrestin2 pEC50 read as <5

CCC1(CC)CC(=O)c2cc(-c3nc(-c4cnccn4)no3)ccc2O1 has a reported hS1P1 B-arrestin2 pEC50 of <5

Form field hS1P1 B-arrestin2 pEC50, entry Cc1ccsc1-c1noc(-c2ccc3c(c2)nnn3C(C)C)n1 : >5

For this compound ( CC(C)n1nnc2cc(-c3nc(-c4ccncc4)no3)ccc21 ), measured hS1P1 B-arrestin2 pEC50 is >5

Lookup result for CCC1(CC)CC(=O)c2cc(-c3nc(-c4ccnc(C(N)=O)c4)no3)ccc2O1 ; measured hS1P1 B-arrestin2 pEC50: >5

----------
# Target system: human sphingosine-1-phosphate receptor 1 (S1P1) (Homo sapiens (Human))
# Assay details: Inhibition of cAMP production (HTRF cAMP HiRange), S1P1 CHO-K1 cells
# Assay type: cell-based
# Experimental context: inhibition of cAMP production, S1P1 CHO-K1 cells
# Sequence (P21453 whole entry, looked up): as the sequence (P21453 whole entry, looked up) above
Observed property: hS1P1 cAMP pEC50

CC(C)n1nnc2cc(-c3nc(-c4cccnc4)no3)ccc21: <6.5

hS1P1 cAMP pEC50 in this record for Cc1cc(C)cc(-c2noc(-c3ccc4c(c3)nnn4C3CCCCC3)n2)c1 : <6.5

hS1P1 cAMP pEC50 reported for this compound Brc1ccccc1-c1noc(-c2ccc3c(c2)nnn3C2CC2)n1 : >6.5
